Read-out: Human Leukocyte Antigen - DR isotype (HLADR), HLA-DRA (gene 3122)
method: BSK_BE3C_HLADR: BioMAP Diversity Plus: BE3C Assay for Human Leukocyte Antigen - DR isotype (HLADR) Biomarker Activity (AID 2283032)
condition-parameters: primary human bronchial epithelial cells; actives raise or lower the signal
Protocol: BSK_BE3C is a cell-based, multiplexed-readout assay that uses bronchial epithelial cell, a human lung primary cell, with measurements taken at 24 hours after chemical dosing in a 96-well plate.BSK_BE3C_HLADR is an assay component measured in the BSK_BE3C assay. It measures HLA-DR antibody related to regulation of gene expression using ELISA technology.Data from the assay component BSK_BE3C_HLADR was analyzed into 1 assay endpoint. […]
The source made the active and inactive calls. Rule for the calls: active = hit-call score of the fitted dose curve at least 0.9, where 1 is the maximum; inactive = score below 0.9.
Allowed answers: T = active, F = inactive

CCOC(=O)C=Cc1ccccc1 = F
C#C[C@]1(O)CC[C@H]2[C@@H]3CCc4cc(O)ccc4[C@H]3CC[C@@]21C = F

Per the records of this test, what outcome belongs to "CC(=O)OCC=C(C)CCC=C(C)CCC=C(C)C" ?
T

Which result was noted for this compound in the test: "C=C(F)C(=O)OC(C(F)(F)F)C(F)(F)F"
F

Assay result, entry "CCCCCCCCCCCCS" — outcome?
T

In this assay, the call recorded for "CCCCN(CCO)CCO" was what?
F

What is the recorded call for this compound in the test? "C=C(C)C(N)=O"
F

Please state the recorded outcome for this compound: "C=CC(=O)OCC(CO)(COC(=O)C=C)COC(=O)C=C"
T

Status in this test for "CC1(C)[C@H](C=C(Cl)Cl)[C@H]1C(=O)OCc1cccc(Oc2ccccc2)c1" ?
F

Short answer needed: outcome of this test for "c1ccc2c(c1)-c1ccc3ccc4cccc5cc-2c1c3c45" ?
T

Record request — test call for "NC(=O)c1c(Cl)cccc1Cl"
F
